Values were extracted from the Human Domainome abundance scans (Beltran et al. 2025).

B1: Homeobox protein SIX6, residues 134 to 184; numbered along this chain, O95475 (parent)
chain: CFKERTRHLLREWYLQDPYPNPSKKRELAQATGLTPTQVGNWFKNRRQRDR

variants of: B1; assay: abundance fitness (aPCA) (normalised: wild type 0, dead -1); higher = more abundant; growth selection in yeast, the domain comes from the species named; conditions: Homo sapiens
value-type: abundance fitness
Numbers only.

Some variants with known abundance fitness results, for comparison:
{"item-sequence": "CFKERTRHLLREWYLQDPYPNPSKKRSLAQATGLTPTQVGNWFKNRRQRDR [E27S]", "abundance fitness": -0.679}
{"item-sequence": "CFKERTRHLLREWYLQDPYPNPSKKRRLAQATGLTPTQVGNWFKNRRQRDR [E27R]", "abundance fitness": -0.437}

Would you mind giving abundance fitness for every variant in the list below?
1. CFKERTRHLLREWYLQDPYPNPSKKRELAQATGDTPTQVGNWFKNRRQRDR [L34D]
2. CFKERTRHLLREWYLQDPYPNPSKKRELAQATGLTPTQVGNEFKNRRQRDR [W42E]
3. CFKERTRHLLREWYLQDPYPNPSKKREGAQATGLTPTQVGNWFKNRRQRDR [L28G]
4. CFKERTRHLLREWYLQDPYPNPSKKRELAQATGLTPTQVGNWFKNERQRDR [R46E]
5. CFKERTRHLLREWYLQDPYPNPSKKRELAQATGLTPTQVGNWFFNRRQRDR [K44F]

-0.936
-0.683
-0.883
0.062
-0.438

Could you tell me abundance fitness for each of these variants? They are listed below.
1. CFKERTRHLLREWYLQDPYPNPSKKRELAQATGLTPTQVWNWFKNRRQRDR [G40W]
2. CFKERTRHLLREWYLQDPYPNPSKKRELAQATGLTPTQVGNWFSNRRQRDR [K44S]
3. CFKERTRHLLREWYLQDPYPNPSKKRESAQATGLTPTQVGNWFKNRRQRDR [L28S]
4. CFKERTRHLLREWYLQDPYPNPSKKRELAQATGLTPTQVGNWFKNRRQIDR [R49I]
5. CFKERTRHLLREWYLQDPYPNPSKKRELAQATGLTPTQVGNQFKNRRQRDR [W42Q]
6. CFKERTRHLLREWYLQDNYPNPSKKRELAQATGLTPTQVGNWFKNRRQRDR [P18N]
7. CFKERTRHLLREWYLQDPYPQPSKKRELAQATGLTPTQVGNWFKNRRQRDR [N21Q]

[-0.467, -0.282, -0.981, -0.482, -0.726, -0.696, -0.105]

Dear colleague, could you send me abundance fitness for each of the items below? Thanks.
1. CFKERTRHLLREWYLQDPYPNPNKKRELAQATGLTPTQVGNWFKNRRQRDR [S23N]
2. CFKERTRHLLREWYLQDPYPNPSKKRELAQATGLTPTQVGNWFKNRRQEDR [R49E]

1. -0.175
2. 0.049
